Catalogue of compounds with associated TGI
- System: M14 melanoma
- Assay Summary: NCI tumour cell line growth inhibition, 48 h

COC(=O)C(C(=O)OC)C(Br)C(Br)C(Br)c1ccccc1 (stereo unspecified) :: 27.5 µM
CNc1ncnc2c1nc(NC1CCCC1)n2C1OC(CO)C(O)C1O (stereo unspecified) :: > 100 µM
COc1ccccc1C(=O)NCC1CCCN2CCCCC12 (stereo unspecified) :: > 100 µM

# get_value(readout='TGI', item= `COc1ccc(C(=O)c2sc3nc(-c4cccs4)ccc3c2N)cc1OC` ) > 100 µM

# get_value(readout='TGI', item= `CC(=O)/C=C/c1ccc(OCc2ccc(Cl)cc2)cc1` ) > 1000 µM

# get_value(readout='TGI', item= CC1=Nc2c([nH]c(=S)[nH]c2=O)NC(c2c(Cl)cccc2Cl)C1 (stereo unspecified) ) 6.47 µM

---

- Tested on: COLO 205 colon
- Assay Summary: NCI tumour cell line growth inhibition, 48 h
Catalogue of compounds with associated TGI

Enter reported TGI observed with COLO 205 colon for `Cc1ccc(S(=O)(=O)N/N=C/C(C)C)cc1` > 100 µM

Enter reported TGI observed with COLO 205 colon for CCCCOC1OC(COC(=O)C(C)C)C(OC(=O)C(C)C)C(O)C1OC1OC(C)C(OC(=O)CCC)C(OC(=O)C(C)C)C1O (stereo not given) 25.8 µM

Enter reported TGI observed with COLO 205 colon for `O=C(NCCCl)SCCO` > 100 µM

Enter reported TGI observed with COLO 205 colon for Cc1cc(O)c(C2=NN(c3ccc(S(N)(=O)=O)cc3)C(/C=C/c3ccccc3)C2)cc1Cl (stereo not given) 22.1 µM

Enter reported TGI observed with COLO 205 colon for `Cc1nc2cc(Nc3nc(Nc4ccc(F)cc4)nc(N4CCOCC4)n3)ccc2n1Cc1ccccc1` 3.33 µM

---

Catalogue of compounds with associated TGI
- System: SK-MEL-28 melanoma
- Assay Summary: NCI tumour cell line growth inhibition, 48 h

# example entries with known answers
O=C1c2cccnc2C(=O)c2c1c(C(=O)OCCCN1CCCCC1)c1ccccn21 :: 3.74 µM
CC(Oc1ccccc1)C(=O)NNC(=O)OC(C)(C)C (centres undefined) :: > 100 µM
c1ccc2c(c1)cc1n2CCc2c-1[nH]c1ccccc21 :: > 10 µM
O=C(O)c1nc2ccc(C(F)(F)F)cc2nc1Nc1ccc(F)cc1 :: > 100 µM

# get_value(readout='TGI', item= COC1CC(N)C(O)C(C)O1 (centres undefined) ) > 100 µM

# get_value(readout='TGI', item= C=C(Cl)C(Cl)(CCl)CCC(Br)C(C)(C)Br (centres undefined) ) > 10 µM

# get_value(readout='TGI', item= O=C1OC(=O)C2C3C=CC(C12)C1C2C=CC2C31 (centres undefined) ) > 100 µM

# get_value(readout='TGI', item= `C/C(=N\O)c1cccc[n+]1Cc1ccccc1` ) > 100 µM

# get_value(readout='TGI', item= `Nc1nc(N)c2nc3c(nc2n1)CCCCCCCCCC3` ) > 100 µM

---

Catalogue of compounds with associated TGI
- Test system: HCT-116 colon
- Assay Summary: NCI tumour cell line growth inhibition, 48 h

# example entries with known answers
CC(C)C1=CC(=O)[C@@](C)(C2[C@H](O)C[C@@]3(C)[C@@H]4CC=C5[C@@H](CC[C@@H](OC6OCC(O)C(O)C6OC6OC(C)C(O)C(O)C6O)C5(C)C)[C@]4(C)C(=O)C[C@]23C)O1 (some centres undefined) :: > 100 µM
COc1cc(OC)c2c(c1)OC(c1cccnc1)C(c1ccccc1)C2=O (centres undefined) :: > 100 µM
CCn1c(CCl)nc2c1C(=O)c1ccccc1C2=O :: 4.32 µM

Continue with the next compound.
# get_value(readout='TGI', item= `COc1nc2ccc(COc3ccc(C(=O)O)cc3)cc2nc1OC` ) > 100 µM
